From: the supplement of paper PMC11451515

# System: NOMO1
# MEASUREMENT NOTES: cell viability relative to DMSO control; higher = less cytotoxic
# RUN CONDITIONS: RPMI 5 mM glucose + 10% dialyzed FBS; 48 h; 0.0632 µM
PROPERTY LABEL: cell viability (%)
Number only, in %; omit the unit.

Example entries and their recorded answers appear below.
C[C@@H]1CC[C@@]2(OC1)OC1CC3C4CC=C5CC(O)CCC5(C)C4CCC3(C)C1[C@@H]2C (stereo partly drawn): 87.4
OC(COC1=C2C(=O)\C=C(/OC2=CC=C1)C([O-])=O)COC3=C4C(=O)\C=C(/OC4=CC=C3)C([O-])=O: 86

Pending compound:
QUERY: GET /values?readout=cell viability&system=NOMO1&item= Nc1nc(OCc2ccccc2)c2nc[nH]c2n1
RESULT: 128

---

# Tested on: NOMO1
# MEASUREMENT NOTES: cell viability relative to DMSO control; higher = less cytotoxic
# RUN CONDITIONS: HPLM + 10% dialyzed FBS; 48 h; 5.12 µM
Below: a set of entries, each annotated with reported cell viability.
Number only, in %; omit the unit.

COc1cc(N[S+](=O)([O-])c2ccc(N)cc2)nc(OC)n1: 99.3

QUERY: Please give the measured cell viability for this molecule: C[S+]([O-])c1ccc(-c2nc(-c3ccc(F)cc3)c(-c3ccncc3)[nH]2)cc1 (centres undefined)
RESULT: 35.1

QUERY: Please give the measured cell viability for this molecule: C#C[C@]1(O)CC[C@H]2[C@@H]3CCc4cc(OC)ccc4[C@H]3CC[C@@]21C
RESULT: 109

QUERY: Please give the measured cell viability for this molecule: CCN(C)C(=O)Oc1cccc([C@H](C)N(C)C)c1
RESULT: 99.9

---

Below: a set of entries, each annotated with reported cell viability.
# Test system: NOMO1
# MEASUREMENT NOTES: cell viability relative to DMSO control; higher = less cytotoxic
# RUN CONDITIONS: RPMI 5 mM glucose + 10% dialyzed FBS; 48 h; 46.1 µM

QUERY: GET /values?readout=cell viability&system=NOMO1&item= O=C1CCc2ccc(OCCCCN3CCN(c4cccc(Cl)c4Cl)CC3)cc2N1
RESULT: 78.7%

---

# Tested on: P12-Ichikawa
# MEASUREMENT NOTES: cell viability relative to DMSO control; higher = less cytotoxic
# RUN CONDITIONS: RPMI 5 mM glucose + 10% dialyzed FBS; 48 h; 0.0632 µM
PROPERTY LABEL: cell viability (%)
Number only, in %; omit the unit.

N[C@@H](CC(=O)N1CCn2c(nnc2C(F)(F)F)C1)Cc1cc(F)c(F)cc1F: 100
COc1ccc(Nc2cc(-c3cnc(N)nc3)nc(N3CCOCC3)n2)cn1: 102

Pending compound:
QUERY: Please give the measured cell viability for this compound: CC(C)C[C@H](NC(=O)[C@H](Cc1ccccc1)NC(=O)c1cnccn1)B(O)O
RESULT: 4.76

---

# Test system: NOMO1
# MEASUREMENT NOTES: AUC of viability dose-response curve (% viability x log10 dose units); higher = less sensitive
# RUN CONDITIONS: RPMI 5 mM glucose + 10% FBS; 48 h
So basically, if AUC of viability dose-response curve comes in under 400 it's 1, and if it's 400 or more it's -1.

As a guide, the following entries are already answered.
COc1cc(OC)c(NC(=O)Nc2cc(C)on2)cc1Cl: -1
CC(C)[C@H](CO)Nc1nc(Nc2cccc(Cl)c2)c2ncn(C(C)C)c2n1: 1
NC\1=N\C(=O)N(\C=C1)[C@H]\2[C@H](O)[C@H](O)C(=C2F)\CO: 1

QUERY: Hello, I'm reviewing records and need to know if AUC of viability dose-response curve of Cl.Nc1ccn([C@@H]2O[C@H](CO)[C@@H](O)C2(F)F)c(=O)n1 is below 400. Could you check?
RESULT: 1

QUERY: Hello, I'm reviewing records and need to know if AUC of viability dose-response curve of CN(C)CC/C=C1/c2ccccc2COc2ccc(CC(=O)O)cc21 is below 400. Could you check?
RESULT: -1

QUERY: Hello, I'm reviewing records and need to know if AUC of viability dose-response curve of CN[C@@H]1C[C@H]2O[C@@](C)([C@@H]1OC)n1c3ccccc3c3c4c(c5c6ccccc6n2c5c31)C(=O)N[C@H]4O is below 400. Could you check?
RESULT: 1

QUERY: Hello, I'm reviewing records and need to know if AUC of viability dose-response curve of O=c1[nH]cnc2c1ncn2[C@H]1CC[C@@H](CO)O1 is below 400. Could you check?
RESULT: -1

---

# Test system: P12-Ichikawa
# MEASUREMENT NOTES: cell viability relative to DMSO control; higher = less cytotoxic
# RUN CONDITIONS: RPMI 5 mM glucose + 10% FBS; 48 h; 0.19 µM
PROPERTY LABEL: cell viability (%)
Number only, in %; omit the unit.

CC(=O)O[C@@]12CO[C@@H]1C[C@H](O)[C@]3(C)[C@@H]2[C@H](OC(=O)C4=CC=CC=C4)[C@]5(O)C[C@H](OC(=O)C(O)[C@@H](NC(=O)OC(C)(C)C)C6=CC=CC=C6)C(=C(/[C@@H](O)C3=O)C5(C)C)/C (stereo partly specified): 34.8

Pending compound:
QUERY: Please give the measured cell viability for this compound: CO[C@H]1C[C@@H]2CC[C@@H](C)[C@@](O)(O2)C(=O)C(=O)N2CCCC[C@H]2C(=O)O[C@H]([C@H](C)C[C@@H]2CC[C@@H](OCCO)[C@H](OC)C2)CC(=O)[C@H](C)/C=C(/C)[C@@H](O)[C@@H](OC)C(=O)[C@H](C)C[C@H](C)\C=C/C=C\C=C/1C
RESULT: 77.7

---

Below: a set of entries, each annotated with reported cell viability.
# System: SEM cells
# MEASUREMENT NOTES: cell viability relative to DMSO control; higher = less cytotoxic
# RUN CONDITIONS: RPMI 5 mM glucose + 10% FBS; 48 h; 0.00234 µM
Number only, in %; omit the unit.

COC[C@H]1OC(=O)C2=COC3=C2[C@@]1(C)\C4=C(\[C@@H]5CC[C@H](O)[C@@]5(C)C[C@H]4OC(C)=O)C3=O: 67.4
NC(=O)c1cccc(N)c1: 106
C#C[C@]1(O)CC[C@H]2[C@@H]3CCc4cc(OC)ccc4[C@H]3CC[C@@]21C: 114

QUERY: Please give the measured cell viability for this compound: CC(=O)[C@H]1CC[C@H]2[C@@H]3CCC4=CC(=O)CC[C@]4(C)[C@H]3CC[C@]12C
RESULT: 96.9

QUERY: Please give the measured cell viability for this compound: CC(=O)O[C@@]12CO[C@@H]1C[C@H](O)[C@]3(C)[C@@H]2[C@H](OC(=O)C4=CC=CC=C4)[C@]5(O)C[C@H](OC(=O)C(O)[C@@H](NC(=O)OC(C)(C)C)C6=CC=CC=C6)C(=C(/[C@@H](O)C3=O)C5(C)C)/C (stereo partly specified)
RESULT: 22

QUERY: Please give the measured cell viability for this compound: CCCCCCCCc1ccc(CCC(N)(CO)CO)cc1
RESULT: 115

---

# Test system: NOMO1
# MEASUREMENT NOTES: AUC of viability dose-response curve (% viability x log10 dose units); higher = less sensitive
# RUN CONDITIONS: HPLM + 10% dialyzed FBS; 48 h
PROPERTY LABEL: AUC of viability dose-response curve
Lab note: write the figure by itself, no unit.

Example entries and their recorded answers appear below.
CN1C(=O)/C=C(/NCCN(CCO)CCCC2=CC=C(C=C2)[N+]([O-])=O)N(C)C1=O: 463
Cc1c(C(=O)Nc2cccc(C(F)(F)F)c2)cc(-c2ccccc2)n1CCCN1CCOCC1: 458
Cc1ccc(C(=O)c2cc(O)c(O)c([N+](=O)[O-])c2)cc1: 447

QUERY: GET /values?readout=AUC of viability dose-response curve&system=NOMO1&item= O=[N+]([O-])c1cnc(Sc2nnc(O)n2-c2ccc3c(c2)OCCO3)s1
RESULT: 376

QUERY: GET /values?readout=AUC of viability dose-response curve&system=NOMO1&item= CC1COC2=C3N1\C=C(C(O)=O)/C(=O)C3=CC(=C2N4CCN(C)CC4)F (stereo not drawn)
RESULT: 459

---

Below: a set of entries, each annotated with reported cell viability.
# Test system: SEM cells
# MEASUREMENT NOTES: cell viability relative to DMSO control; higher = less cytotoxic
# RUN CONDITIONS: HPLM + 10% dialyzed FBS; 48 h; 0.000781 µM
Number only, in %; omit the unit.

Example entries and their recorded answers appear below.
CCCCCCCCCCCCCCCCCCOP(=O)([O-])OC1CC[N+](C)(C)CC1: 82.4
COc1cc(-c2nn(C3CCC(N4CCN(C(C)=O)CC4)CC3)c3ncnc(N)c23)ccc1NC(=O)c1cc2ccccc2n1C (configuration not stated): 121

QUERY: GET /values?readout=cell viability&system=SEM cells&item= C[C@@H](N)c1ccc(C(=O)Nc2ccnc3[nH]ccc23)cc1
RESULT: 99.4

QUERY: GET /values?readout=cell viability&system=SEM cells&item= COC1(C[S+]([O-])c2ccccc2)CCN(CCc2c[nH]c3ccc(F)cc23)CC1 (configuration not stated)
RESULT: 119

QUERY: GET /values?readout=cell viability&system=SEM cells&item= Cc1ccc(C(=O)c2cc(O)c(O)c([N+](=O)[O-])c2)cc1
RESULT: 78.2

QUERY: GET /values?readout=cell viability&system=SEM cells&item= CC1=C(CC/C(C)=C/CCC2=CCC(C3=CC(=O)OC3O)OC2O)C(C)(C)CCC1 (configuration not stated)
RESULT: 115

QUERY: GET /values?readout=cell viability&system=SEM cells&item= CN(C)C[C@@H]1CC[N]2C=C(C3=C2C=CC=C3)C/4=C(/C(=O)NC4=O)C5=C[N](CCO1)C6=C5C=CC=C6
RESULT: 87.6
